Where these numbers come from: patent US20240132484A1

Exercise: state measured Toxicity Data, Average, Mean percentage relative to DMSO control for each of the compounds provided.
system: cells (nuclei count); conditions: Average of Exp 1 (SMW491) and Exp 2 (SMW492), n=4, 1 uM
State just the number; it will be interpreted in %.

Query block: Form field: reported Toxicity Data, Average, Mean percentage relative to DMSO control of COc1ccc(C2NC(=O)NC(C)=C2C(=O)NCc2ccccc2)cc1OC (centres unmarked) [SILCS48]
Result block: 119.19

Query block: Another: COc1ccc(CNCCc2ccccc2F)c(OCC(O)CN2CCCC2)c1 (racemic) [SILCS43]
Result block: 154.73

Query block: Again, but for CCN(CC)CCN(Cc1ccccn1)C(=O)c1cccs1 [SILCS37]
Result block: 108.95

Query block: Repeat for the following compound: COc1ccc(CNCCc2ccccc2F)c(OCC(O)CN2CCN(C)CC2)c1 (racemic) [SILCS41]
Result block: 118.33

Query block: Can you check COc1ccc(CNCCc2ccccc2F)c(OCC(O)CN2CCN(C)CC2)c1 (centres unmarked) [SILCS46] next?
Result block: 103.33
